Source of measurements: patent US7348421B1

Test system: Pseudomonas putida DOT-T1E
Test details: Halo-inhibition test with antibiotic disks on minimal medium
Assay type: cell-based
Condition details: strain T1E; 6-mm disks, µg per disk as; minimal medium
Below, each entry is listed with its recorded size of the inhibition halo.
Quantity kind: size of the inhibition halo (mm)

Smiles code | Quantity kind | Numeric value
CN(C)[C@@H]1C(O)=C(C(N)=O)C(=O)[C@@]2(O)C(O)=C3C(=O)c4c(O)cccc4[C@@](C)(O)[C@H]3C[C@@H]12 | size of the inhibition halo | 21
[H]/N=C(/N)N[C@H]1[C@H](O)[C@@H](O)[C@H](O[C@@H]2O[C@@H](C)[C@](O)(C=O)[C@H]2O[C@@H]2O[C@@H](CO)[C@H](O)[C@@H](O)[C@@H]2NC)[C@@H](N/C(N)=N\[H])[C@@H]1O | size of the inhibition halo | 16
C[C@@H](O)[C@H]1C(=O)N2C(C(=O)O)=C(SCCN=CN)C[C@H]12 | size of the inhibition halo | 26
O=C(O)c1cn(C2CC2)c2cc(N3CCNCC3)c(F)cc2c1=O | size of the inhibition halo | 21

---

Tested on: Pseudomonas putida DOT-T1E
Test details: Halo-inhibition test with antibiotic disks on minimal medium
Type: cell-based
Condition details: strain T1E; 6-mm disks, µg per disk as; minimal medium

Smiles code | Study system | size of the inhibition halo [mm]
CCN1CCN(C(=O)N[C@@H](C(=O)N[C@@H]2C(=O)N3[C@@H]2SC(C)(C)[C@@H]3C(=O)O)c2ccccc2)C(=O)C1=O | Pseudomonas putida DOT-T1E | 18
CCn1cc(C(=O)O)c(=O)c2cc(F)c(N3CCNCC3)cc21 | Pseudomonas putida DOT-T1E | 20
CCn1cc(C(=O)O)c(=O)c2ccc(C)nc21 | Pseudomonas putida DOT-T1E | 15
CO/N=C(\C(=O)N[C@@H]1C(=O)N2C(C(=O)O)=C(COC(C)=O)CS[C@H]12)c1csc(N)n1 | Pseudomonas putida DOT-T1E | 14

---

Tested on: Pseudomonas putida DOT-T1E
Test details: Halo-inhibition test with antibiotic disks on minimal medium
Type: cell-based
Condition details: wild-type; Halo-inhibition test
Quantity kind: tolerance/sensitivity to antibiotic

Smiles code | Study system | Quantity kind | Result
CO/N=C(\C(=O)N[C@@H]1C(=O)N2C(C(=O)O)=C(COC(C)=O)CS[C@H]12)c1csc(N)n1 | Pseudomonas putida DOT-T1E | tolerance/sensitivity to antibiotic | sensitive
CCn1cc(C(=O)O)c(=O)c2cc(F)c(N3CCNCC3)cc21 | Pseudomonas putida DOT-T1E | tolerance/sensitivity to antibiotic | sensitive

---

System: P. putida PhoA5
Assay type: cell-based, Pseudomonas putida
Condition details: aromatic carboxylic acid gradient, 20 h at 30° C.

Compound | concentration that the strain tolerated (g/L)
Nc1cccc(C(=O)O)c1 [m-aminobenzoate] | 7.5
Nc1ccc(C(=O)O)cc1 [p-aminobenzoate] | 7.8
O=C(O)c1ccccc1Cl [o-chlorobenzoate] | 6.0
COc1ccccc1C(=O)O [o-methoxybenzoate] | 8.5
COc1cccc(C(=O)O)c1 [m-methoxybenzoate] | 7.2
Nc1ccccc1C(=O)O [o-aminobenzoate] | 5.0
O=C(O)c1cccc(Cl)c1 [m-chlorobenzoate] | 3.0
Cc1ccc(C(=O)O)cc1 [p-methylbenzoate] | 7.4

---

Test system: Pseudomonas putida DOT-T1E
Test details: Halo-inhibition test with antibiotic disks on minimal medium
Format: cell-based
Condition details: wild-type; Halo-inhibition test

Smiles code | tolerance/sensitivity to antibiotic
[H]/N=C(/N)N[C@H]1[C@H](O)[C@@H](O)[C@H](O[C@@H]2O[C@@H](C)[C@](O)(C=O)[C@H]2O[C@@H]2O[C@@H](CO)[C@H](O)[C@@H](O)[C@@H]2NC)[C@@H](N/C(N)=N\[H])[C@@H]1O | equally sensitive
C[C@@H](O)[C@H]1C(=O)N2C(C(=O)O)=C(SCCN=CN)C[C@H]12 | sensitive
O=C(N[C@H](CO)[C@H](O)c1ccc([N+](=O)[O-])cc1)C(Cl)Cl | tolerant
CCN1CCN(C(=O)N[C@@H](C(=O)N[C@@H]2C(=O)N3[C@@H]2SC(C)(C)[C@@H]3C(=O)O)c2ccccc2)C(=O)C1=O | equally sensitive
CN[C@H](CC(C)C)C(=O)N[C@H]1C(=O)N[C@@H](CC(N)=O)C(=O)N[C@H]2C(=O)N[C@H]3C(=O)N[C@H](C(=O)N[C@H](C(=O)O)c4cc(O)cc(O)c4-c4cc3ccc4O)[C@H](O)c3ccc(c(Cl)c3)Oc3cc2cc(c3O[C@@H]2O[C@H](CO)[C@@H](O)[C@H](O)[C@H]2O[C@H]2C[C@](C)(N)[C@H](O)[C@H](C)O2)Oc2ccc(cc2Cl)[C@H]1O | tolerant
CC[C@H]1OC(=O)[C@H](C)[C@@H](O[C@H]2C[C@@](C)(OC)[C@@H](O)[C@H](C)O2)[C@H](C)[C@@H](O[C@@H]2O[C@H](C)C[C@H](N(C)C)[C@H]2O)[C@](C)(O)C[C@@H](C)C(=O)[C@H](C)[C@@H](O)[C@]1(C)O | tolerant
O=C(O)c1cn(C2CC2)c2cc(N3CCNCC3)c(F)cc2c1=O | sensitive
